assay: Human HepG2 cell viability assay in 384 well format; assay type: toxicity, cell-based; parameters: dose 125 nL, time 70.5 hour; concentration not given beside the values; details: HepG2 cells, read-out: Inhibition
READOUT: cytotoxicity at 70.5 h (%)
The response must be a number in % with no trailing unit.

> print(dat)
                                   compound  measured.value
1  COCC(=O)N1CCN(C(=O)NC(C)C)CC2(CC(=O)N(C)C2)C1 (stereo not drawn)            9.18

Item O=S(=O)(C1CC1)N1CCn2c(Cn3cccn3)cnc2C1 has what recorded cytotoxicity at 70.5 h?
-1.3

Would you mind doing CC(C)OC(=O)N1CCCCC1CCn1cccn1 (stereo not drawn) as well?
-7.8

Would you mind doing O=C(c1ccnc(N2CCOC(C(F)(F)F)C2)c1)N1CCOCC1 (stereo not drawn) as well?
-19.7

Would you mind doing CC(NS(C)(=O)=O)C(=O)N(C)Cc1csc(-c2cccs2)n1 (stereo not drawn) as well?
-13.4

Would you mind doing Cc1cc(C)nc(NCc2cc3n(n2)CCCN(C(=O)C2CCC2)C3)n1 as well?
-1.4

Would you mind doing CS(=O)(=O)NCCCNC(=O)c1cccc(-n2cccc2)c1 as well?
-1.21

Would you mind doing CN(CCOc1cccc(CNS(C)(=O)=O)c1)C1CCOCC1 as well?
1.39

Would you mind doing O=C(NCN1CCc2ccccc2C1)c1cnccn1 as well?
-8.88

Would you mind doing CSC1=Nc2c(cnn2-c2ccccc2)C2=NCCCN12 as well?
-8.98

Would you mind doing CC(C)c1cc(NCC(O)c2ccccn2)n2nccc2n1 (stereo not drawn) as well?
-8.96

Would you mind doing Cc1ccc(C(=O)N2CC[C@@H]3CN(C4CCOCC4)CCO[C@@H]3C2)o1 as well?
-7.78

Would you mind doing CCS(=O)(=O)N1CCCC2(COCCN(c3cnccn3)C2)C1 (stereo not drawn) as well?
-2.48

Would you mind doing Cc1ccccc1C(C)CC(=O)N1CC[C@H](O)C1 (stereo partly drawn) as well?
-2.39

----------
experiment: Human HepG2 cell viability assay in 384 well format; assay type: toxicity, cell-based; design: dose 125 nL, time 70.5 hour; concentration not given beside the values; settings: HepG2 cells, read-out: Inhibition
READOUT: cytotoxicity at 70.5 h (%)
The response must be a number in % with no trailing unit.

Please review the following examples before continuing.
> print(dat)
                                   molecule                 readout  measured.value
1              Cc1ccnc(NC(=O)c2cc(C)oc2C)c1  cytotoxicity at 70.5 h            4.63
2  Cc1noc(C)c1CN1CCC2(CC1)CCN(C(=O)c1cscn1)C2  cytotoxicity at 70.5 h            10.4
3        CCc1noc(CN2CCN(C(=O)N(CC)CC)CC2)n1  cytotoxicity at 70.5 h             -10

Item Cc1cnn(CC2CN(Cc3nc(-c4ccoc4)no3)CCO2)c1 (configuration not stated) has what recorded cytotoxicity at 70.5 h?
-18.2

Would you mind doing CCCC1(CO)CCCN(c2ncnc3c2c(C)nn3C)C1 (configuration not stated) as well?
-3.54

Would you mind doing CSCC[C@H](N)C(=O)NCc1cc2n(n1)CCCN(C(=O)N(C)C)C2 as well?
-8.91

----------
assay: Human HepG2 cell viability assay in 384 well format; type: toxicity, cell-based; set-up: dose 125 nL, time 70.5 hour; concentration not given beside the values; settings: HepG2 cells, read-out: Inhibition
READOUT: cytotoxicity at 70.5 h (%)
The response must be a number in % with no trailing unit.

Please review the following examples before continuing.
> print(dat)
                                   molecule  measured.value
1  CC(c1cccc(S(N)(=O)=O)c1)N(C)CCc1ccccc1 (stereo unspecified)            11.5
2          Cc1nc(C(C)C)sc1C(=O)NCCSc1nccn1C           -10.1
3  CC(C)c1nc(CN(C)C2CCN(Cc3nc(C4CC4)no3)C2)no1 (stereo unspecified)              12
4  CC(C)(C)c1n[nH]c(C2CN(CCc3ccncc3)CCO2)n1 (stereo unspecified)           0.424

Item CCn1ccnc1CN(C)C1CCCN(Cc2ccccc2F)C1 (stereo unspecified) has what recorded cytotoxicity at 70.5 h?
-1.31

Would you mind doing O=C([C@@H]1CCCO1)N1CCN(Cc2ccncc2)c2ncccc2C1 as well?
-0.675

Would you mind doing O=C(NCC1CC1)[C@@H]1CCO[C@@H]2CCN(Cc3ccco3)C[C@H]21 as well?
15.7

Would you mind doing CN1Cc2ccccc2CC2(CCN(C(=O)N3CCOCC3)CC2)C1=O as well?
24.7

Would you mind doing COc1cc(CN(C)C(=O)NCc2cccc3c2OCO3)ccc1SC as well?
-6.35

Would you mind doing Cc1cccc(C(C)C)c1NC(=O)NCCN(C(C)C)C(C)C as well?
-4.96

Would you mind doing O=C(C[C@@H]1COC[C@H]2CN(CC3CCOCC3)C[C@@H]12)N1CCCCO1 as well?
-8.58

----------
assay: Human HepG2 cell viability assay in 384 well format; type: toxicity, cell-based; design: dose 125 nL, time 70.5 hour; concentration not given beside the values; conditions: HepG2 cells, read-out: Inhibition
READOUT: cytotoxicity at 70.5 h
The answer consists of two parts: a number and, after it, its unit.

Please review the following examples before continuing.
> print(dat)
                                   molecule                 readout  measured.value
1  CC[C@H](C)[C@H](N)C(=O)N1CC(=O)c2sc(Nc3ccc(F)cc3)nc2C1  cytotoxicity at 70.5 h           7.24%
2  Cc1cc(C(=O)N[C@H]2CC[C@@]3(CCC(=O)N3CC3CC3)CC2)no1  cytotoxicity at 70.5 h          -15.5%
3  Cc1nc(C)n(CC2CCCN2Cc2cn3ccccc3n2)n1 (centres undefined)  cytotoxicity at 70.5 h          -14.7%

Item c1cc2c(cc1CN1CCN(Cc3noc(C4CC4)n3)CC1)OCO2 has what recorded cytotoxicity at 70.5 h?
-2.86%

----------
assay: Human HepG2 cell viability assay in 384 well format; assay type: toxicity, cell-based; design: dose 125 nL, time 70.5 hour; concentration not given beside the values; conditions: HepG2 cells, read-out: Inhibition
READOUT: cytotoxicity at 70.5 h (%)
The response must be a number in % with no trailing unit.

> print(dat)
                                   molecule  measured.value
1  O=C(c1cccnc1O)N(Cc1cccs1)CC1CCCO1 (stereo unspecified)           -11.9
2  CN(Cc1nccn1C)C1CCCN(CCCc2ccccc2)C1 (stereo unspecified)           -6.62
3  Cc1cn2c(n1)CCC(NC(=O)CCCn1cncn1)C2 (stereo unspecified)            15.9
4  CN(Cc1nc2ccccc2o1)CC1CCCN1c1cccnn1 (stereo unspecified)            7.03
5  O=C(c1ccsc1)N1CCOC2(CCN(Cc3cccnc3)CC2)C1           -1.16

Item CN1CCCC1CNC(=O)CCCOc1ccc(Br)cc1 (stereo unspecified) has what recorded cytotoxicity at 70.5 h?
-3.72

Would you mind doing NC(=O)CN1CCCCC1c1ccc(-n2ccnc2)nc1 (stereo unspecified) as well?
-3.85

Would you mind doing CC(C)(C)OC(=O)N1CCCc2ccc(NCc3ncc[nH]3)cc21 as well?
9.84

Would you mind doing Cc1cccc(C(=O)NC2CCN(c3cnn(C)c3)C2=O)c1C (stereo unspecified) as well?
-2.07

Would you mind doing COc1nc(C)c(C(=O)NCc2cc(N3CCOCC3)ncn2)s1 as well?
-2.68

----------
experiment: Human HepG2 cell viability assay in 384 well format; type: toxicity, cell-based; parameters: dose 125 nL, time 70.5 hour; concentration not given beside the values; conditions: HepG2 cells, read-out: Inhibition
Items are presented alongside their recorded cytotoxicity at 70.5 h.
The response must be a number in % with no trailing unit.

Please review the following examples before continuing.
> print(dat)
                                   molecule                 readout  measured.value
1         CC(C)OCCN1CCC(Nc2ccc(C#N)cc2F)CC1  cytotoxicity at 70.5 h           -8.23
2       CCOCC(=O)N1CCc2nc(C)nc(NC(C)C)c2CC1  cytotoxicity at 70.5 h              16
3  O=C(O)CSc1nnc(-c2ccn[nH]2)n1-c1cccc(C(F)(F)F)c1  cytotoxicity at 70.5 h            -4.2
4       Cc1nc(CN2CCCN(Cc3nccn3C(C)C)CC2)no1  cytotoxicity at 70.5 h           -15.2
5  Cc1ccc(CN(CC(=O)NC2CCOCC2)c2ccc(F)cc2)o1  cytotoxicity at 70.5 h            1.79
6                COc1cc(F)ccc1N(C)Cc1ccccn1  cytotoxicity at 70.5 h           -1.59
7  Cc1nc2nc(C)c3c(=O)n(-c4ccn[nH]4)ccc3n2n1  cytotoxicity at 70.5 h            10.9
8     CSc1cccc(CC(=O)N[C@@H]2CCNC[C@H]2O)c1  cytotoxicity at 70.5 h            10.3

Item Cc1noc(C)c1CN1CCCC2(CCN(C(=O)N3CCOCC3)C2)C1 (stereo unspecified) has what recorded cytotoxicity at 70.5 h?
-8.84

Would you mind doing CC(O)CN1CCC(CN(C)Cc2cccc(C#N)c2)CC1 (stereo unspecified) as well?
-2.33

Would you mind doing Cc1ccc(CN2CCC(CNC(=O)Cn3cncn3)CC2)cc1 as well?
-6.33

Would you mind doing COCCN1CC2(CCCN(Cc3cc(=O)c(OC)co3)C2)CCC1=O (stereo unspecified) as well?
-8.24

Would you mind doing Cc1ccccc1-n1ncc(C(C)N)c1C (stereo unspecified) as well?
26.7

Would you mind doing CSC(C)(C)CNC(=O)NC1CCN(CC2CC2)C1 (stereo unspecified) as well?
15.5

Would you mind doing CCc1noc(CNCCn2cc(C)cn2)n1 as well?
-3.69

Would you mind doing CCn1cc(CN(C)S(=O)(=O)c2cnn(CC)c2C)c(C)n1 as well?
5.14

Would you mind doing Cn1cnc(S(=O)(=O)N2CCO[C@H]3[C@H](OCC4CC4)CC[C@@H]32)c1 as well?
-2.37

Would you mind doing Cc1nn(C2CCS(=O)(=O)C2)c(C)c1CC(=O)NCc1ccccc1Cl (stereo unspecified) as well?
-4.52

Would you mind doing Cc1nn(C)c2nc(NC3CCNCC3)sc12 as well?
1.8

Would you mind doing COCC1c2nnn(CC3CC3)c2CCN1Cc1ccncc1 (stereo unspecified) as well?
-8.11

Would you mind doing O=C(c1cnn2cc(CCO)cnc12)N1CCOC(C(F)(F)F)C1 (stereo unspecified) as well?
-13
